# Tested on: Enterovirus 71 (Tainin/4643/98 strain)
# protocol description: Inhibition of EV-A71 replication in Vero 76 cells
# Assay type: cell-based, Enterovirus A71
measured metric: Activity against EV-A71 in words

>  <structure>
CC(C)[C@@H](Nc1nc(Cl)nc2c1ncn2[C@H]1[C@H](O)[C@H](O)[C@]2(CN=[N+]=[N-])C[C@H]12)C1CC1

>  <measured metric>
Activity against EV-A71 in words

>  <measured result>
intermediate potency

$$$$
>  <structure>
CCOC(=O)[C@@]12C[C@@H]1[C@@H](n1cnc3c(NC(C4CC4)C4CC4)nc(Cl)nc31)[C@H](O)[C@@H]2O

>  <measured metric>
Activity against EV-A71 in words

>  <measured result>
inactive

$$$$
>  <structure>
OC[C@H]1O[C@@H](n2cnc3c(NC(C4CCC4)C4CCC4)ncnc32)[C@H](O)[C@@H]1O

>  <measured metric>
Activity against EV-A71 in words

>  <measured result>
inactive

$$$$
>  <structure>
CC(C)[C@@H](Nc1nc(Cl)nc2c1ncn2[C@H]1[C@H](O)[C@H](O)[C@]2(CCl)C[C@H]12)C1CC1

>  <measured metric>
Activity against EV-A71 in words

>  <measured result>
intermediate potency

$$$$
>  <structure>
OC[C@H]1O[C@@H](n2cnc3c(NC(C4CC4)C4CC4)ncnc32)[C@H](O)[C@@H]1O

>  <measured metric>
Activity against EV-A71 in words

>  <measured result>
inactive

$$$$

---

# System: Enterovirus 71 (Tainin/4643/98 strain)
# protocol description: Inhibition of EV-A71 replication in Vero 76 cells
# Type: cell-based, Enterovirus A71

>  <structure>
CC(C)[C@@H](Nc1nc(Cl)nc2c1ncn2[C@H]1[C@H](O)[C@H](O)[C@]2(CN)C[C@H]12)C1CC1

>  <Activity against EV-A71 in words>
reduced inhibition

$$$$
>  <structure>
CSC[C@@]12C[C@@H]1[C@@H](n1cnc3c(N[C@H](C(C)C)C4CC4)nc(Cl)nc31)[C@H](O)[C@@H]2O

>  <Activity against EV-A71 in words>
reduced inhibition

$$$$

Data provenance is paper PMC7534897.
